src = patent US20080227954A1

Consider the following binders; for each one, report its IC50.
molecular target: T1, µ opioid receptor (bovine caudate nucleus synaptic membrane fraction) (bovine, UniProt P79350 1-401); experiment: displacement of 1 nM [3H]DAMGO, bovine caudate synaptic membranes; column Time 18 hours
T1 construct: whole, on cells; Native receptor in brain membranes, not on intact cells; The tissue may hold other opioid receptors; also called µ-receptor; µ opioid receptors
T1 sequence (P79350 whole entry): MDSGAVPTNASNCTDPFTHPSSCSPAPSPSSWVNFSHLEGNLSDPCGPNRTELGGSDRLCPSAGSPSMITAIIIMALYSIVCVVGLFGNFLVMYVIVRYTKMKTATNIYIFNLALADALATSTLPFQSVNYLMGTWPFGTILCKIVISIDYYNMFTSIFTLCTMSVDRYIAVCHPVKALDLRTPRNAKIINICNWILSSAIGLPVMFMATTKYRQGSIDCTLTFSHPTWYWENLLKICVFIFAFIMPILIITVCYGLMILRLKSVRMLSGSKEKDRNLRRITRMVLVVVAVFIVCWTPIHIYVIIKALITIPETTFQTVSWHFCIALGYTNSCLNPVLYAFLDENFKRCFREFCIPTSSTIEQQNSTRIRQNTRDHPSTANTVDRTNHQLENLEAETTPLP
Where no end group is shown, it is not given here.
One number for each entry, in nM.

Below are worked cases with known answers.
{"binder": "H-YGGFLKKKKKK-OH (also called H-Leu-enkephalin-Lys6) [Leu-Enkephalin-(Lys)6-OH (H-Tyr-Gly-Gly-Phe-Leu-Lys6-OH)]", "IC50, nM": 32}
{"binder": "H-YGGFLEEEEEE-OH [Leu-Enkephalin-(Glu)6-OH (H-Tyr-Gly-Gly-Phe-Leu-Glu6-OH)]", "IC50, nM": 5000}

Now examine the next entry.
Q) Look up IC50: YGGFLKEKEKE-OH [Leu-Enkephalin-(Lys-Glu)3-OH]
A) 900
